// reported inhibition for each item listed
# experiment_summary: inhibition of coupled GDH and TPI enzymes – biochemical, fluorescence, high throughput, artefact control for M. tuberculosis FBA inhibitor project (AID 652141)
# experimental_conditions: GDH-TPI coupled enzyme counterscreen, at 1 µM, active compounds read high
The campaign covered roughly 5,600 compounds. About 4,500 (80%) were called active. So high a share suggests a set chosen from earlier hits. Only a sample is shown.
The reply should contain only the number, in %.

smiles_record=CCC(=O)Nc1c(S(=O)(=O)c2ccccc2)c2nc3ccccc3nc2n1Cc1ccccc1 experimental_value=150
smiles_record=COc1ccc(-c2cc(C(=O)Nc3ccccc3O)c3ccccc3n2)cc1 experimental_value=114
smiles_record=CCSc1nnc(-c2cc3c(s2)-c2ccccc2CC3)o1 experimental_value=53.8
smiles_record=COc1ccc(-c2ccc(C(=O)NCCN3CCOCC3)c3occc23)c(C)c1 experimental_value=56.7
smiles_record=Brc1cnc2ccccc2c1N1CCCCC1 experimental_value=60.2

inhibition lookup needed for COc1ccc(-c2cc(C(=O)N(C)Cc3ccccc3)c3ccccc3n2)cc1 , thanks. -2.5

====

# experiment_summary: inhibition of coupled GDH and TPI enzymes – biochemical, fluorescence, high throughput, artefact control for M. tuberculosis FBA inhibitor project (AID 652141)
# experimental_conditions: GDH-TPI coupled enzyme counterscreen, at 1 µM
Out of some 5,600 compounds screened, about 4,500 (80%) were called active. Rule as the data show it: active = inhibition above about 10%; inactive = the rest. So high a share suggests a set chosen from earlier hits. Not all results are given here.
Pick one: TRUE for active, FALSE for inactive

compound="CCOc1c2ccc(C(=O)NC3CCCc4ccccc43)cc2nn1CC (configuration not stated)" cat=FALSE
compound=CCCNC(=O)c1c(N)n(-c2ccc(S(N)(=O)=O)cc2)c2nc3ccccc3nc12 cat=FALSE
compound=CCOC(=O)c1[nH]c2ccc(OC)cc2c1NC(=O)N1CCOCC1 cat=TRUE

Please indicate how the test categorized COc1cccc(NC(=O)CN(C)CC(=O)Nc2ccc3c(c2)CCC3)c1 . TRUE

Please indicate how the test categorized COCc1cc(=O)[nH]c2cc(NC(=O)C(F)(F)F)c(C)cc12 . TRUE

Please indicate how the test categorized COc1cccc(NC(=O)CN(C)C(=O)/C=C/c2cc(OC)ccc2OC)c1 . TRUE

Please indicate how the test categorized O=c1oc2ccccc2cc1-c1cn(-c2ccccc2)c(=S)[nH]1 . TRUE

====

# experiment_summary: inhibition of coupled GDH and TPI enzymes – biochemical, fluorescence, high throughput, artefact control for M. tuberculosis FBA inhibitor project (AID 652141)
# experimental_conditions: GDH-TPI coupled enzyme counterscreen, at 1 µM
The whole screen tested about 5,600 compounds, of which about 4,500 (80%) were called active. Cut-off read from the data, not from the text of the source: active = inhibition above about 10%; inactive = the rest. The set was probably picked from earlier hits. These entries were drawn from the full list.
Pick one: label 1 for active, label 0 for inactive

Worked examples, 5 compounds total:
compound=CCN(CC)CCCNC(=O)c1cc2c(=O)[nH]c3ccc(C)cc3c2s1 cat="label 1"
compound=CCCCOc1ccc(-c2nnc(-c3ccco3)o2)cc1 cat="label 1"
compound=O=C(Nc1nncs1)c1ccccc1NS(=O)(=O)c1cccs1 cat="label 1"
compound=COc1ccc(NC(=O)CN(C)C(=O)c2cc(-c3ccc(C)o3)nc3ccccc23)cc1 cat="label 1"
compound=COc1ccc(-n2cc(CNC3CCOCC3)c(-c3cccc(F)c3)n2)cc1 cat="label 1"

Please indicate how the test categorized COc1ccc(CNC(=O)c2c[nH]c3c(OC)cc(OC)cc3c2=O)cc1 . label 0

Please indicate how the test categorized CC(C)C1Nc2c(C(=O)O)cccc2C(Nc2ccccc2C(=O)O)C1(C)C (centres undefined) . label 1

Please indicate how the test categorized CCc1ccc(-c2cc(C(=O)NCc3ccco3)c3ccccc3n2)s1 . label 0

Please indicate how the test categorized COCCNc1nc(-n2nc(C)cc2C)nc2sc3c(c12)CCCC3 . label 1

Please indicate how the test categorized Cc1ccc2nc(/C(C#N)=C\c3ccc(OC(=O)c4cccs4)cc3)[nH]c2c1 . label 1

Please indicate how the test categorized O=C(CCC(=O)N/N=C/c1ccc(Br)o1)N/N=C/c1ccc(Br)o1 . label 1

Please indicate how the test categorized COc1ccc2oc(=O)c(C(=O)N3CCCC3)cc2c1 . label 1

Please indicate how the test categorized Cc1ccc(C2Nc3ccccc3C(=O)N2CCN2CCNC2=O)cc1 (centres undefined) . label 0

Please indicate how the test categorized CN(C)S(=O)(=O)c1ccc(N/C=C(\[N+](=O)[O-])S(=O)(=O)c2ccccc2)cc1 . label 0
